Recorded values, source patent US20180141989A1.

Target: MBP-RAMP2 ECD [L106R]-(GS)5-CLR ECD-H6 fusion protein (human) (UniProt O60895)
Sequence (O60895 other isoform, or with tags, fused parts or gaps L106R L106R): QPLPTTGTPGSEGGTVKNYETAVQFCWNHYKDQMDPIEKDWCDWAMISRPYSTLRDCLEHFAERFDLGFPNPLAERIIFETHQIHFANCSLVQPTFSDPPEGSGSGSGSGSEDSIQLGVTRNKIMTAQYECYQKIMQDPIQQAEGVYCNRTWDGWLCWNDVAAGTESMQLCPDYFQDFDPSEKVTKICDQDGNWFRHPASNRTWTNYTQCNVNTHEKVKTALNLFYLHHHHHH
Assay: FP competition vs FITC-AM W/W probe, purified ECD fusion
Where no end group is shown, it is not given here.
In this section, each of the binders is paired with its reported Ki.
Reply numerically in µM, unit not repeated.

Guide cases for Ki, answers given:
{"binder": "DKDNVAPRSLISPWGF-NH2 [AM(37-52)NH2 [K46L, Q50W, Y52F]]", "observed": 89.1}
{"binder": "DKDNVAPRSKISPQGY-NH2 [AM(37-52)NH2]", "observed": 20.4}
{"binder": "DKDNVAPRWLISPWGF-NH2 [AM(37-52)NH2 [S45W, K46L, Q50W, Y52F]]", "observed": 4.07}

Exam item: Any idea what its Ki is? The binder is DKFNVAPRSLISPWGY-NH2 [AM(37-52)NH2 [D39F, K46L, Q50W]]
Marked response: 1.83

Exam item: And DKFNVAPRSLISPWGF-NH2 [AM(37-52)NH2 [D39F, K46L, Q50W, Y52F]] ?
Marked response: 30.3

Exam item: Another binder to look at: DKKNVAPRSKISPQGY-NH2 [AM(37-52)NH2 [D39K]]
Marked response: 6.1

Exam item: Item: DKDNVAPRWWISPWGF-NH2 [AM(37-52)NH2 [S45W, K46W, Q50W, Y52F]]
Marked response: 16.6

Exam item: Also FVPTDVGPWSF-NH2 [CGRP(27-37)NH2 [N31D, S34P, K35W, A36S]] ?
Marked response: 2.45
